B1: HESX1 (parent)
chain: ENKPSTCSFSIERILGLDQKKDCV

- Variants of: B1
- protocol-notes: protein stability index of a GFP-peptide fusion (GPS, HEK-293T) (PSI 1-6); higher = more stable;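 note: lentivirally expressed fusions sorted by FACS into six bins by GFP to DsRed ratio, PSI derived from sequencing read proportions per bin multiplied by bin number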
- experimental-setup: c terminus: a fixed tail appended
metric-name: protein stability index
// response body must contain only the number

Sample answers from the record:
K21T | 3.19
K3I | 2.84
F9S | 3.97

Look at this variant and give its reported protein stability index. G16I
2.63

And what about the variant D22F ?
2.1

And what about the variant C7S ?
3.98

And what about the variant K3H ?
3.42

And what about the variant D18P ?
2.71
